- System: 454973-116-R2-J3-PDC complex spheroid viability;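 further: spheroids exposed to drugs for seven days before measurement; percent viability relative to DMSO vehicle control wells taken as 100%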
- measurement.notes: Anticancer human tumor 454973-116-R2-J3-PDC patient-derived pancreatic carcinoma cell line growth inhibition [POLQ]
- conditions: second compound 0.1 µM; first compound 0.1 µM; hits give low values
- Procedure: Multicellular complex tumor spheroid response to Polymerase (POL) inhibitors (novobiocin, ART-558, RP6685) in combination with a variety of drugs and investigational agents in selected tumor cell lines The POL inhibitors (novobiocin, ART-558, and RP6685) were evaluated both individually and in combination with standard of care and investigational anticancer small molecules within a complex spheroid model of solid tumors. . […]

{"compound": "COc1ccc([C@@H](O)c2cc(-c3ncnc4cc(N5CCOCC5)ccc34)c(F)cc2Cl)nn1 + Cc1cccc(N(C)C(=O)C2C(O)CCN2c2nc(C)cc(C(F)(F)F)c2C#N)c1", "viability, T/C [%]": 99}
{"compound": "COc1cccc(OCCCN)c1-c1cc(Nc2cnc(C#N)cn2)n[nH]1 + Nc1ccc(C#CCN(C(=O)Cc2ncc(C(F)(F)F)cc2C(F)(F)F)c2ccc(F)cc2)nn1", "viability, T/C [%]": 6.65}
{"compound": "CCc1cc2c(N3CCc4c(cc(Cn5ccnc5)cc4-c4cn(C)nc4C(F)(F)F)C3=O)ccnc2c(OC)n1 + Cc1cccc(N(C)C(=O)C2C(O)CCN2c2nc(C)cc(C(F)(F)F)c2C#N)c1", "viability, T/C [%]": 86}
{"compound": "O=C(c1cc(Cc2n[nH]c(=O)c3ccccc23)ccc1F)N1CCN(C(=O)C2CC2)CC1 + Cc1cccc(N(C)C(=O)C2C(O)CCN2c2nc(C)cc(C(F)(F)F)c2C#N)c1", "viability, T/C [%]": 103}
{"compound": "O=C(Nc1ccc(O)c(NS(=O)(=O)c2ccc(F)cc2)c1)c1ccc(-c2ccccc2)cc1 + COC1C(OC(N)=O)C(O)C(Oc2ccc3c(O)c(NC(=O)c4ccc(O)c(CC=C(C)C)c4)c(=O)oc3c2C)OC1(C)C", "viability, T/C [%]": 119}
{"compound": "C=CCn1c(=O)c2cnc(Nc3ccc(N4CCN(C)CC4)cc3)nc2n1-c1cccc(C(C)(C)O)n1 + Nc1ccc(C#CCN(C(=O)Cc2ncc(C(F)(F)F)cc2C(F)(F)F)c2ccc(F)cc2)nn1", "viability, T/C [%]": 104}
{"compound": "Nc1ccn(C2OC(CO)C(O)C2(F)F)c(=O)n1 (stereo unspecified) + Nc1ccc(C#CCN(C(=O)Cc2ncc(C(F)(F)F)cc2C(F)(F)F)c2ccc(F)cc2)nn1", "viability, T/C [%]": 7.54}
{"compound": "C=CC(=O)N1CCN(c2nc(=O)n(-c3c(C)ccnc3C(C)C)c3nc(-c4c(O)cccc4F)c(F)cc23)C(C)C1 (stereo unspecified) + COC1C(OC(N)=O)C(O)C(Oc2ccc3c(O)c(NC(=O)c4ccc(O)c(CC=C(C)C)c4)c(=O)oc3c2C)OC1(C)C", "viability, T/C [%]": 110}
{"compound": "Cn1ncnc1[C@H]1c2n[nH]c(=O)c3cc(F)cc(c23)N[C@@H]1c1ccc(F)cc1 + Cc1cccc(N(C)C(=O)C2C(O)CCN2c2nc(C)cc(C(F)(F)F)c2C#N)c1", "viability, T/C [%]": 90.1}
{"compound": "O=c1[nH]cc(F)c(=O)[nH]1 + COC1C(OC(N)=O)C(O)C(Oc2ccc3c(O)c(NC(=O)c4ccc(O)c(CC=C(C)C)c4)c(=O)oc3c2C)OC1(C)C", "viability, T/C [%]": 108}
{"compound": "C=CC(=O)N1CCN(c2nc(=O)n(-c3c(C)ccnc3C(C)C)c3nc(-c4c(O)cccc4F)c(F)cc23)C(C)C1 (stereo unspecified) + Cc1cccc(N(C)C(=O)C2C(O)CCN2c2nc(C)cc(C(F)(F)F)c2C#N)c1", "viability, T/C [%]": 101}
{"compound": "CNCc1ccc(-c2[nH]c3cc(F)cc4c3c2CCNC4=O)cc1 + Nc1ccc(C#CCN(C(=O)Cc2ncc(C(F)(F)F)cc2C(F)(F)F)c2ccc(F)cc2)nn1", "viability, T/C [%]": 96.2}
{"compound": "CCc1cc2c(N3CCc4c(cc(Cn5ccnc5)cc4-c4cn(C)nc4C(F)(F)F)C3=O)cc(C)nc2c(OC)n1 + Nc1ccc(C#CCN(C(=O)Cc2ncc(C(F)(F)F)cc2C(F)(F)F)c2ccc(F)cc2)nn1", "viability, T/C [%]": 88.4}
{"compound": "CCCS(=O)(=O)Nc1ccc(F)c(C(=O)c2c[nH]c3ncc(-c4ccc(Cl)cc4)cc23)c1F + Nc1ccc(C#CCN(C(=O)Cc2ncc(C(F)(F)F)cc2C(F)(F)F)c2ccc(F)cc2)nn1", "viability, T/C [%]": 109}
{"compound": "COc1cc2cc(C(=O)CCC(=O)O)sc2cc1OC + Nc1ccc(C#CCN(C(=O)Cc2ncc(C(F)(F)F)cc2C(F)(F)F)c2ccc(F)cc2)nn1", "viability, T/C [%]": 103}
{"compound": "COc1cc(C2c3cc4c(cc3C(OC3OC5COC(C)OC5C(O)C3O)C3COC(=O)C23)OCO4)cc(OC)c1O (stereo unspecified) + COC1C(OC(N)=O)C(O)C(Oc2ccc3c(O)c(NC(=O)c4ccc(O)c(CC=C(C)C)c4)c(=O)oc3c2C)OC1(C)C", "viability, T/C [%]": 111}
{"compound": "CCc1cc2c(N3CCc4c(cc(Cn5ccnc5)cc4-c4cn(C)nc4C(F)(F)F)C3=O)cc(C)nc2c(OC)n1 + Cc1cccc(N(C)C(=O)C2C(O)CCN2c2nc(C)cc(C(F)(F)F)c2C#N)c1", "viability, T/C [%]": 99.2}
{"compound": "COc1cccc2c1C(=O)c1c(O)c3c(c(O)c1C2=O)CC(O)(C(=O)CO)CC3OC1CC(N)C(O)C(C)O1 (stereo unspecified) + Nc1ccc(C#CCN(C(=O)Cc2ncc(C(F)(F)F)cc2C(F)(F)F)c2ccc(F)cc2)nn1", "viability, T/C [%]": 20.7}
{"compound": "CC1COCCN1c1cc(C2(O)CC3CCC(C2)O3)c2cnn(-c3ccn[nH]3)c2n1 (stereo unspecified) + Nc1ccc(C#CCN(C(=O)Cc2ncc(C(F)(F)F)cc2C(F)(F)F)c2ccc(F)cc2)nn1", "viability, T/C [%]": 54}
{"compound": "COc1cccc(OCCCN)c1-c1cc(Nc2cnc(C#N)cn2)n[nH]1 + Cc1cccc(N(C)C(=O)C2C(O)CCN2c2nc(C)cc(C(F)(F)F)c2C#N)c1", "viability, T/C [%]": 7.01}
{"compound": "O=C(Nc1ccc(O)c(NS(=O)(=O)c2ccc(F)cc2)c1)c1ccc(-c2ccccc2)cc1 + Cc1cccc(N(C)C(=O)C2C(O)CCN2c2nc(C)cc(C(F)(F)F)c2C#N)c1", "viability, T/C [%]": 97.2}

Where do these numbers come from? They come from PubChem BioAssay AID1963846.
